The measurements presented in this section are drawn from ChEMBL document CHEMBL3039007.

Target: UniProt Q9Y6L6
Sequence (Q9Y6L6 whole entry): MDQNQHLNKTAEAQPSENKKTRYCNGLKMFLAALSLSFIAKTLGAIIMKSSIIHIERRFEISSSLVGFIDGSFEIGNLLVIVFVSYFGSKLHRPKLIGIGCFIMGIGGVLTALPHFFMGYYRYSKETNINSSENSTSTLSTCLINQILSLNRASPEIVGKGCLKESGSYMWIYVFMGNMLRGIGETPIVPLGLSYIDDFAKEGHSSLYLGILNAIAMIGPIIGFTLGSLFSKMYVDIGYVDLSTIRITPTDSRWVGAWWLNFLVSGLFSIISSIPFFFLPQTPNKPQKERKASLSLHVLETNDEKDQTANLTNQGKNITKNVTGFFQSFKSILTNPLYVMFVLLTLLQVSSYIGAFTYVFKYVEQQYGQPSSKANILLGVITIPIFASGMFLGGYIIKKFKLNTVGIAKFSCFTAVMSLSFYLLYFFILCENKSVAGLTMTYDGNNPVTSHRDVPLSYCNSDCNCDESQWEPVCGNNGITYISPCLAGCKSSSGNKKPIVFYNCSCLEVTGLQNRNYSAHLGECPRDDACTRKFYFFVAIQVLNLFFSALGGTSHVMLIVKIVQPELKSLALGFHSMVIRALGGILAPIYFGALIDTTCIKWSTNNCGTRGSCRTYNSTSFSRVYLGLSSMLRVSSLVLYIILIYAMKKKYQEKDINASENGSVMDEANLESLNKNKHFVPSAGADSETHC
Conditions: chinese hamster, cho, 10 µM
assay-metric: residual activity (%)
// units = %; emit number, no label

These recorded examples may help you get a feel for the data.
{"molecule": "O=C1CC(c2ccccc2)Oc2ccccc21 (configuration not stated) [FLAVANONE]", "target-or-test-system": "UniProt Q9Y6L6", "assay-metric": "residual activity", "observed-result": 76.99}
{"molecule": "COc1cnc(NS(=O)(=O)c2ccc(N)cc2)nc1", "target-or-test-system": "UniProt Q9Y6L6", "assay-metric": "residual activity", "observed-result": 233.5}
{"molecule": "CCC1(c2ccc(N)cc2)CCC(=O)NC1=O (configuration not stated) [AMINOGLUTETHIMIDE]", "target-or-test-system": "UniProt Q9Y6L6", "assay-metric": "residual activity", "observed-result": 52.33}
{"molecule": "COc1cc(C2Oc3cc([C@H]4Oc5cc(O)cc(O)c5C(=O)[C@@H]4O)ccc3OC2CO)ccc1O (some centres not stated) [SILIBININ]", "target-or-test-system": "UniProt Q9Y6L6", "assay-metric": "residual activity", "observed-result": 54.77}
{"molecule": "C=C1[C@@H]2CC[C@@]3(C)[C@H](c4ccoc4)OC(=O)C[C@]13O[C@H]1C[C@H](OC(C)=O)C(C)(C)[C@H](CC(=O)OC)[C@]12C", "target-or-test-system": "UniProt Q9Y6L6", "assay-metric": "residual activity", "observed-result": 13.98}

Input line: Look at this molecule and give its reported residual activity. CC1=C(/C=C/C(C)=C/C=C/C(C)=C/C=C/C=C(C)/C=C/C=C(C)/C=C/C(=O)[C@]2(C)C[C@@H](O)CC2(C)C)C(C)(C)C[C@H](O)C1 [CAPSANTHIN]
Output line: 79.45

Input line: Item: O=C(Oc1cc(O)cc2c1C[C@@H](OC(=O)c1cc(O)c(O)c(O)c1)[C@@H](c1cc(O)c(O)c(O)c1)O2)c1cc(O)c(O)c(O)c1 [EPIGALLOCATECHIN 3,5-DIGALLATE]
Output line: 55.31
